- assayed_target: T1, human TREM2 (human, UniProt Q9NZC2 19-174, limits assumed)
- T1 construct: also called triggering receptor expressed on myeloid cells 2
- T1 sequence: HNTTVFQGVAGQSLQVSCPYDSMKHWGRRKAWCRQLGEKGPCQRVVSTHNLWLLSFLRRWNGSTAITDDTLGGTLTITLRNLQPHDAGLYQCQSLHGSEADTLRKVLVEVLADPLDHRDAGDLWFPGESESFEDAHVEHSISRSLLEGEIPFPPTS
- procedure_text: 1st screen (110 nM or 10 nM)
metric: Binding Signal (fold over 6E7 Parental antibody) (fold)
Record the value in fold, omitting the unit from your answer.

Answered examples (2):
V85 (antibody, V domains shown) VH: EVQLVQSGAEVKKPGESLKISCKGSGYSFRSYWIAWVRQMPGKGLEWMGTIYPGDSDTRYSPSFQGQVTISADKSISTAYLQWSSLKASDTAMYFCARSRTFYYDSSDYFDYWGQGTLVTVSS VL: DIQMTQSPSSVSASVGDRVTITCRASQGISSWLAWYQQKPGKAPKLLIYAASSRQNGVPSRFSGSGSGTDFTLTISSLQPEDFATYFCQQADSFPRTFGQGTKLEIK: 5.41
V50 (antibody, V domains shown) VH: EVQLVQSGAEVKKPGESLKISCKGSGYSFGSYWIAWVRQMPGKGLEWMGVIYPGDSDTRYSPSFQGQVTISADKSISTAYLQWSSLKASDTAMYFCARQRTFYYDSSDYLDYWGQGTLVTVSS VL: DIQMTQSPSSVSASVGDRVTITCRASQGISSWLAWYQQKPGKAPKLLIYAASSRQNGVPSRFSGSGSGTDFTLTISSLQPEDFATYFCQQADSLPRTFGQGTKLEIK: 4.1

Could you now look at the following binder, please?
Input line: Entry under review: V35 (antibody, V domains shown) VH: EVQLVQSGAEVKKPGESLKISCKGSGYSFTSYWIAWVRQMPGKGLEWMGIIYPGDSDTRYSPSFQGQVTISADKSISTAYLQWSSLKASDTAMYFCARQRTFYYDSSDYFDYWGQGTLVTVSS VL: DIQMTQSPSSVSASVGDRVTITCRASQGISSWLAWYQQKPGKAPKLLIYAASSLQNGVPSRFSGSGSGTDFTLTISSLQPEDFATYFCQQAYSFPRTFGQGTKLEIK . Reported Binding Signal (fold over 6E7 Parental antibody)?
Output line: 0.21
